From: patent US20240025906A1

Tested on: JAK1/TYK2 pSTAT5 (Tyr694/699) in THP-1 cell line
assaySummary: IFNa-stimulated JAK1/TYK2 pSTAT5 (Tyr694/699) inhibition cellular assay, AlphaLISA
Assay type: cell-based
conditionDetails: Homo sapiens; THP-1 cells, IFNa-stimulated pSTAT5 (Tyr694/699), AlphaLISA (Assay B); read-out: Cellular_THP1_IFNa-pSTATS_TYK2
pIC50: −log10 of the molar value.
Overview of recorded pIC50 for various molecules

Consider the worked cases shown below.
QUERY: Look at this molecule and give its reported pIC50. CN=S(C)(=O)c1ccc(C#Cc2cnc(NC)c3cnc(NC(=O)C4CC4)cc23)cc1 (stereo not drawn)
RESULT: ≥ 6.30

QUERY: # lookup: pIC50 of CNc1ncc(-c2nc3ccc(N4CCO[C@H](C(C)(C)OC)C4)cn3n2)c2cc(NC(=O)C3CC3)ncc12
RESULT: ≥ 6.30

QUERY: Given the molecule CNc1ncc(-c2nc3cc(N4CCOC(C(F)F)C4)ccc3o2)c2cc(NC(=O)[C@H]3C[C@H]3C)ncc12 (stereo partly drawn) , what is its reported pIC50?
RESULT: ≥ 6.30

New cases:
QUERY: Could you share which pIC50 value was measured for CNc1ncc(-c2cc3ccncc3o2)c2cc(Nc3cccc(OCCCCO)n3)ncc12 ?
RESULT: ≥ 6.30

QUERY: Which pIC50 is reported for this molecule? CNc1ncc(C#Cc2ccc(OC)cn2)c2cc(NC(=O)C3COC3)ncc12
RESULT: < 6.30

QUERY: Can you look up the measured pIC50 of CNc1ncc(-c2nc3cc(N4CCOCC4)ccc3o2)c2cc(NC(=O)[C@@H]3C[C@@H]3C(F)(F)F)ncc12 (single isomer, unassigned) for me?
RESULT: ≥ 6.30

QUERY: Which measured pIC50 value corresponds to CNc1ncc(-c2cn3cc(C)cc(F)c3n2)c2cc(NC(=O)C3CC3)ncc12 ?
RESULT: ≥ 6.30

QUERY: Requested field: pIC50. Item: CNc1ncc(C#Cc2ccc(N3CCOCC3)cc2)c2cc(NC(=O)[C@H]3C[C@H]3C(F)F)ncc12 (single isomer, unassigned)
RESULT: ≥ 6.30

QUERY: Item CNc1ncc(C#Cc2cnn3cccnc23)c2cc(NC(=O)C3CC3)ncc12 has what recorded pIC50?
RESULT: ≥ 6.30

QUERY: Fill blank: measured pIC50 of the molecule CNc1ncc(-c2nc3ccc(C4=CCOCC4)cn3n2)c2cc(NC(=O)C3CC3)ncc12 is ____.
RESULT: ≥ 6.30

QUERY: Reported pIC50 for CNc1ncc(-c2nc3ccc(N4CCOC(C(C)(C)F)C4)cn3n2)c2cc(NC(=O)C3CC3)ncc12 (single isomer, unassigned) [Example 1049] : what is it?
RESULT: ≥ 6.30

QUERY: Can you look up the measured pIC50 of CNc1ncc(C#Cc2cccc3c2CNCC3)c2cc(NC(=O)C3CC3)ncc12 for me?
RESULT: < 6.30

QUERY: Item CNc1ncc(-c2cc3cc(OC)ccc3o2)c2cc(NC(=O)C3CC3)ncc12 has what recorded pIC50?
RESULT: ≥ 6.30

QUERY: GET /values?readout=pIC50&item= CNc1ncc(C#Cc2ccc(N3CCOCC3=O)cc2)c2cc(NC(=O)C3CC3)ncc12
RESULT: ≥ 6.30

QUERY: // returns reported pIC50 for input CC[C@H]1CN(c2ccc3nc(-c4cnc(NC)c5cnc(NC(=O)[C@H]6C[C@H]6C)cc45)nn3c2)CCO1 (single isomer, unassigned)
RESULT: ≥ 6.30

QUERY: # query: pIC50 of entry CNc1ncc(C#Cc2ccc3c(c2)OCO3)c2cc(NC(=O)C3CC3)ncc12
RESULT: ≥ 6.30
